# Assay target: PI3Kγ (Homo sapiens)
# Construct: made in house
# Sequence (P48736 whole entry): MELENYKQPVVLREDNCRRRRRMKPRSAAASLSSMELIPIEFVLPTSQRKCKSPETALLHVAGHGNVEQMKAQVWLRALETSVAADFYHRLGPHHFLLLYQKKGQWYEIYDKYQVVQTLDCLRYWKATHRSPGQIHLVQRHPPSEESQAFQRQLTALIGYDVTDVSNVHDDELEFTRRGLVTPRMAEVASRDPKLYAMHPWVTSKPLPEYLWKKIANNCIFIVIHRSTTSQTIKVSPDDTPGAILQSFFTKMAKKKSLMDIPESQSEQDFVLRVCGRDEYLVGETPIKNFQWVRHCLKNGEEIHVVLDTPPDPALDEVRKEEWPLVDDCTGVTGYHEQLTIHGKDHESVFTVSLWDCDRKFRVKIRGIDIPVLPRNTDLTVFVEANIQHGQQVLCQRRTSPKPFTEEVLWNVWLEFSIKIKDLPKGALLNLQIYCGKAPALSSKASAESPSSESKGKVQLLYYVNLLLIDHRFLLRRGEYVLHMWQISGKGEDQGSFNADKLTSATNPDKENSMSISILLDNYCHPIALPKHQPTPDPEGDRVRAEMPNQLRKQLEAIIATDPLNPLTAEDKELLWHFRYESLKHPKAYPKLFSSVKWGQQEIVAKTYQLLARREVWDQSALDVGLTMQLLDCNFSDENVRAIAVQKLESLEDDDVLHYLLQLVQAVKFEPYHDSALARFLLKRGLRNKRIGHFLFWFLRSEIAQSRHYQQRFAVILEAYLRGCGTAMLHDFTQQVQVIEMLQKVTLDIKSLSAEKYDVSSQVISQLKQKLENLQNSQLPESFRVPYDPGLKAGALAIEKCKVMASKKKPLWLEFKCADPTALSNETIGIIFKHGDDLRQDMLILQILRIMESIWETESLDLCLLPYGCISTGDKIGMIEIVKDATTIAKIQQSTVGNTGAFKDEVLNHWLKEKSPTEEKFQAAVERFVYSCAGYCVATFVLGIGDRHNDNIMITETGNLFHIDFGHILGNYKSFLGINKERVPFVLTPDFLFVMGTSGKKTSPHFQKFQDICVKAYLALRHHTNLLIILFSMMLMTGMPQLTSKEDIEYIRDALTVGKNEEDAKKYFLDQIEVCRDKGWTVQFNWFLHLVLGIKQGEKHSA
# Run description: TR-FRET enzymatic activity assay, PI3Kγ
# Assay type: biochemical
# Run conditions: Table 2; TR-FRET, 2x Km ATP, 30 minutes at 25° C.; read-out: PI3Kγ IC50
Value kind: pIC50
# log scale: pIC50 equals minus log10 of the concentration in mol/L

Note down pIC50 recorded for `N#Cc1c(N)nc(N)nc1N[C@H](c1nc2cccc(Cl)c2c(=O)n1-c1cc[nH]n1)C1CC1`
6.72

Name the recorded pIC50 of the item `C[C@H](Nc1nc(N)nc(N)c1C#N)c1nc2cccc(Cl)c2c(=O)n1-c1n[nH]cc1Br` in your answer.
7.03

Specify reported pIC50 for the compound shown: `C[C@H](Nc1ncnc(N)c1C#Cc1ccc(F)cn1)c1nc2cccc(Cl)c2c(=O)n1-c1cc[nH]n1`
5.40

Please report pIC50 for the following compound: `CC[C@H](Nc1ncnc2scnc12)c1nc2cccc(C#N)c2c(=O)n1-c1cn[nH]c1`
5.06

Indicate the recorded pIC50 value for this compound: `CC[C@H](Nc1nc(N)nc(N)c1C#N)c1nc2c(C)ccc(F)c2c(=O)n1-c1cn[nH]c1`
5.85

Please supply the value of reported pIC50 for the item `C[C@H](Nc1nc(N)nc(N)c1Cl)c1nc2cccc(C(F)F)c2c(=O)n1-c1cc[nH]n1`
5.55

Using the record for `CC[C@H](Nc1nc(N)nc(N)c1C#N)c1nc2c(C#N)cccc2c(=O)n1-c1cc[nH]n1` , state its measured pIC50.
5.29

Report pIC50 for `CC[C@H](Nc1ncnc2scnc12)c1nc2cccc(Br)c2c(=O)n1-c1cn[nH]c1`
6.55

Supply recorded pIC50 for `N#Cc1c(N)nc(N)nc1N[C@H](c1nc2c(Cl)cccc2c(=O)n1-c1cc[nH]n1)C1CC1` here.
5.89

Report measured pIC50; entry is `CC[C@H](Nc1nc(N)nc(N)c1C#N)c1nc2cccc(Br)c2c(=O)n1-c1cc[nH]n1`
6.96

Name the recorded pIC50 of the item `Cc1nc(N)nc(N[C@@H](c2ccccc2)c2nc3cccc(Cl)c3c(=O)n2-c2cn[nH]c2)c1C#N` in your answer.
6.82

Name the recorded pIC50 of the item `Nc1nc(N)c(Cl)c(N[C@H](c2nc3cccc(Cl)c3c(=O)n2-c2cc(Cl)[nH]n2)C2CC2)n1` in your answer.
5.12

Report pIC50 for `O=c1c2c(Cl)ccc(Cl)c2nc([C@@H](Nc2ncnc3scnc23)C2CC2)n1-c1cc[nH]n1`
5.29

Report measured pIC50; entry is `Cc1c[nH]nc1-n1c([C@H](C)Nc2ncnc(N)c2C#N)nc2cccc(Cl)c2c1=O`
5.52

Given the compound `C[C@H](NC(=O)c1c(N)nn2cccnc12)c1nc2cccc(Cl)c2c(=O)n1-c1cc[nH]n1` , write its reported pIC50.
6.80
